# System: HCT-15 colon
# methodDescription: NCI-60 one-dose screen, 48 h (100 = growth as untreated, 0 = no growth, -100 = all killed)
# measurementConditions: 10 µM unless noted
About 83,000 compounds went through this panel and 20% of them were active in at least one assay; those are over-represented in the sample as a whole. Calls of active or inactive are those of the source. The calls were made as follows: active = growth percent below 10; inactive = the rest.
measurementType: growth

Hello, please tell me recorded growth for this one: "COc1ccc(-c2n[nH]nc2-c2csc3ccccc23)cc1OC"
16.4% (inactive)

Hello, please tell me recorded growth for this one: "Cc1nn(-c2cc(=O)[nH]c3ccc(Cl)cc23)c(N)c1C#N"
103% (inactive)

Hello, please tell me recorded growth for this one: COc1cc(C)c(C2C(C#N)=C(N)Oc3n[nH]c(-c4cccs4)c32)cc1C(C)C (stereo unspecified)
96.2% (inactive)

Hello, please tell me recorded growth for this one: "O=C1C=CC(=O)N1c1ccc2c(c1)Cc1cc(F)ccc1-2"
97.1% (inactive)

Hello, please tell me recorded growth for this one: "C=CC(=O)Nc1cccc(-c2nc(SC)nc(NCc3ccccc3)c2C#N)c1"
58.4% (inactive)

Hello, please tell me recorded growth for this one: Cc1cc(N2CCCC2)nc(NC2CCCC(Nc3ccnc4cc(Cl)ccc34)C2)n1 (stereo unspecified)
-52% (active)

Hello, please tell me recorded growth for this one: "COc1cc2c(cc1-c1c(C)noc1C)ncc1nc(C3CCOCC3)n([C@H](C)COC(F)F)c12"
22.8% (inactive)

Hello, please tell me recorded growth for this one: "COc1ccc(-c2cc(-c3ccc(Nc4ccnc5cc(Cl)ccc45)cc3)nc(N3CCOCC3)n2)cc1"
20.7% (inactive)

Hello, please tell me recorded growth for this one: "CSc1nc(NCCN2CCOCC2)c(C#N)c(-c2cccc([N+](=O)[O-])c2)n1"
97.4% (inactive)

Hello, please tell me recorded growth for this one: "O=[N+]([O-])c1ccc2c(c1)Cc1cc(F)ccc1-2"
97.1% (inactive)

Hello, please tell me recorded growth for this one: "COC(=O)c1cccc(NC(=O)c2ccc(-c3cccc(N)c3)o2)c1"
96.6% (inactive)

Hello, please tell me recorded growth for this one: "O=C1CSC(=S)N1CCc1ccc(O)cc1"
59.3% (inactive)

Hello, please tell me recorded growth for this one: "COc1cc(/C=C/c2cc(/C=C/c3ccc(O)c(OC)c3)n(-c3c(Cl)cccc3Cl)c(=O)n2)ccc1O"
10.3% (inactive)

Hello, please tell me recorded growth for this one: "Clc1ccc2nc3nc4ccc[nH]c4cc3c2c1"
69.3% (inactive)

Hello, please tell me recorded growth for this one: "N#Cc1c(N)n(CCNC(=O)c2ccccc2)c2nc3ccccc3nc12"
111% (inactive)

Hello, please tell me recorded growth for this one: "COc1cc2c(cc1O)CC[C@@H]1[C@@H]2CC[C@]2(C)[C@@H](OCCN(C)C)CC[C@@H]12"
34% (inactive)

Hello, please tell me recorded growth for this one: NC(CSC(c1ccccc1)(c1ccccc1)c1ccc(Cl)cc1)C(=O)O (stereo unspecified)
19.3% (inactive)

Hello, please tell me recorded growth for this one: "COc1ccc(NC2=C(Sc3nc(C)cc(C)n3)C(=O)N(Cc3ccccc3)C2=O)cc1Cl"
73.8% [30 µM] (inactive)

Hello, please tell me recorded growth for this one: "COc1cc(-c2nn(-c3ccc(C(=O)O)cc3)cc2C(=O)O)ccc1O"
48.6% (inactive)

Hello, please tell me recorded growth for this one: "O=C1CC[C@H](c2ccc(O)c3c2C(=O)[C@@H]2O[C@@H]2C3=O)c2cccc(O)c21"
42.5% (inactive)

Hello, please tell me recorded growth for this one: "O=C1/C(=C/c2ccccc2)SC(=S)N1CCc1ccc(O)cc1"
100% (inactive)

All figures here come from PubChem BioAssay (NCI).
